Below, each entry is listed with its recorded normalized RNA/DNA level without ligand (log10).
B1: library; a variant is named by its letters at N, in order (parent)
chain: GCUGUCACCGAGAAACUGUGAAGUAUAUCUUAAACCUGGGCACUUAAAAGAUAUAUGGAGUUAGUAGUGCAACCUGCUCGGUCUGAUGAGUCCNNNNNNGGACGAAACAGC

variants of: B1; experiment: normalized RNA/DNA level without ligand (relative to sTRSVctl = 100) (log10 (% of sTRSVctl)); HEK293T; ligand: cyclic di-GMP (c-di-GMP-II aptamer); higher = less ribozyme self-cleavage, higher mRNA level; details: reporter: mCherry (pCS4076), ligand present: no
Note: the reply should be a number with no unit written.

   variant_string   val
0          AAUCCA  1.65
1          ACCGCG  1.72
2          CUCGGA  1.58
3          GCAAGA  1.33
4          CAAGUC   1.7

Q: Given the variant `UUUGUU` , what is its reported normalized RNA/DNA level without ligand (log10)?
Result: 1.73

Q: `GCUGGA` ?
Result: 1.49

Q: `AGUGAU` ?
Result: 1.67

Q: `UCCCUU` ?
Result: 1.69

Q: `AGAACU` ?
Result: 1.68

Q: `UAAGUG` ?
Result: 1.61

Provenance of the data: the supplement of paper PMC6757056
